Study System: T1, CD134 expressed on the cell surface of HT1080_OX40 cells (human, UniProt P43489 29-277); note: test concentration or dose not given here
T1 sequence (looked up): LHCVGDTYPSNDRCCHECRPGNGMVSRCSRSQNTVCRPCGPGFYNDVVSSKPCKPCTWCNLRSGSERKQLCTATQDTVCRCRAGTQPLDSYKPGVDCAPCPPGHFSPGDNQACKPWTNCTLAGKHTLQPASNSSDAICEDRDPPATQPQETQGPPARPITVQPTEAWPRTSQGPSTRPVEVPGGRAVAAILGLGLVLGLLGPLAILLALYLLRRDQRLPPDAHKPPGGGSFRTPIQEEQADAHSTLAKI
Protocol Description: cell-based or functional assay
Readout Label: Functional assay IL-8 (abs. corr.)
Unit abs. corr. implied. Number only.

P018.S.12.A.G02 (antibody, V domains shown, V regions on human Ig constant parts; also called AB134_84) VH: QSLEESGGRLVTPGTPLTLTCTASGFSLNMFYMIWVRQAPGKGLEWIGMIDSMGSAWYASWAKGRFTISKTSTAVALKITSPTTEDTATYFCARAINGDGAGDLWGQGTLVTVSS VL: DVVMTQTPASVSAAVGGTVTINCRASEKIDSFLAWYQQKPGQPPKLLIYGASELAPGVPSRFSGSGSGTDYTLTISALESADAATYYCQSTADGSDYVGTFGGGTEVVVK ... 0.212

Requested field: Functional assay IL-8. Item: P018.S.11.A.E04 (antibody, V domains shown, V regions on human Ig constant parts; also called AB134_35) VH: QSVEESGGRLVTPGTPLTLTCTVSGFSLNDYAMSWVRQAPGKGLEWIGSIYTSGTPYYATWAKGRFTISKTSTTVDLKITSPTTEDTATYFCARQSGIDNYWLFTLWGQGTLVCVSS VL: AYDMTQTPASVEVGVGGTVTIKCQASESIASGLAWYQQKPGQRPKLLIYSASSLASGVSSRFKGSGSGTQFTLTISDLESADAANYYCQQGYTSTNLHNVFGGGTEVVVK -0.194

Requested field: Functional assay IL-8. Item: P018.S.11.A.A05 (antibody, V domains shown, V regions on human Ig constant parts; also called AB134_22) VH: QSVEESGGRLVTPGTPLTLTCTVSGFSLNSYDMSWVRQAPGKGLEWIGFISASGSIYFANWAKGRFTISKTSTTVDLKITSPTTEDTATYFCASDSYGWAYVYYFNLWGPGTLVTVSS VL: AVVLTQTPASVSAAVGGTVTINCRASEDIGSYLGWYQQKPGQPPKLLMHDASDLASGVPSRFSGSGSGTEFTLTISGVQSDDAATYYCQSAWYSSGTDKMAFGGGTEVVVK 0.26

Requested field: Functional assay IL-8. Item: P018.S.12.A.C06 (antibody, V domains shown, V regions on human Ig constant parts; also called AB134_66) VH: QSVEESGGRLVKPDETLTLICTVSGIDLSINVVGWVRQAPGEGLEWIGDISSHGDTIYATWAKGRFTISKTSTTVDLKMTSLTASDTATYFCARYVGDGYYDLWGPGTLVTVSS VL: AYDMTQTPASVSAAVGGTVTINCQASQSISNLLAWYQQKPGQRPKLLIYDTSKLASGVPSRFKGSGSGTQFTLTISDLESADAATYYCQQSYSSSNIANLFGGGTEVVVK 0.881

Requested field: Functional assay IL-8. Item: P018.S.11.A.G04 (antibody, V domains shown, V regions on human Ig constant parts; also called AB134_44) VH: QSVEESGGRLVTPGTPLTLTCTASGFDLSSYYMSWVRQAPGKGLEWIGIIYTDSSASYASWAKGRFTISRTSTTVDLKMTSPTTEDTATYFCARGLVVSTDNYNLWGPGTLVTVSS VL: AAVLTQTPSPVSVAVGGTVTINCQASQSIYNNNYLAWFQQKPGQPPKLLIYYTSTLASGVPSRFKGSGSGTQFTLTINGVQSDDAATYYCLGDVGGGMRVFGGGTEVVVK 0.014
